system: microbiota present in the faecal samples; assay: Faecal fermentation, distribution of oligosaccharides (HPAEC-PAD peak areas); settings: Example 2 sample, 24 h, Donor C
endpoint: Peak areas

INSERT INTO measurements (molecule, endpoint, value_reported) VALUES
  ('OC[C@H]1O[C@@H](O[C@H]2[C@@H](O)[C@@H](CO)O[C@@H](O[C@H]3C(O)O[C@H](CO)[C@@H](O)[C@@H]3O)[C@@H]2O)[C@H](O)[C@@H](O)[C@H]1O (some centres unmarked)', 'Peak areas', 0.0),
  ('OC[C@H]1O[C@@H](O[C@H]2[C@H](O)[C@@H](O)C(O)O[C@@H]2CO)[C@H](O)[C@@H](O)[C@H]1O (some centres unmarked)', 'Peak areas', 0.4),
  ('OC[C@H]1O[C@@H](O[C@H]2[C@@H](O)[C@@H](CO)O[C@@H](O[C@H]3[C@H](O)[C@@H](CO)OC(O)[C@@H]3O)[C@@H]2O)[C@H](O)[C@@H](O)[C@H]1O (some centres unmarked)', 'Peak areas', 0.0),
  ('OC[C@H]1O[C@@H](O[C@@H]2[C@H](O)[C@@H](O)[C@H](O[C@H]3[C@H](O)[C@@H](O)C(O)O[C@@H]3CO)O[C@@H]2CO)[C@H](O)[C@@H](O)[C@H]1O (some centres unmarked)', 'Peak areas', 0.5),
  ('O=C[C@H](O)[C@@H](O)[C@H](O)[C@H](O)CO', 'Peak areas', 0.0);

====

tested on: microbiota present in the faecal samples; assay: Faecal fermentation, distribution of oligosaccharides (HPAEC-PAD peak areas); details: Example 2 sample, 6 h, Donor C
endpoint: Peak areas

INSERT INTO results (molecule, value_reported) VALUES
  ('OC[C@H]1O[C@@H](OC[C@H]2OC(O)[C@H](O)[C@@H](O)[C@@H]2O)[C@H](O)[C@@H](O)[C@H]1O (stereo partly drawn)', 0.0),
  ('OC[C@H]1O[C@@H](O[C@H]2[C@H](O)[C@@H](O)C(O)O[C@@H]2CO)[C@H](O)[C@@H](O)[C@H]1O (stereo partly drawn)', 0.6),
  ('O=C[C@H](O)[C@@H](O)[C@H](O)[C@H](O)CO', 0.3),
  ('O=C[C@H](O)[C@@H](O)[C@@H](O)[C@H](O)CO', 0.8),
  ('OC[C@H]1O[C@@H](O[C@H]2[C@@H](O)[C@@H](CO)O[C@@H](O[C@H]3[C@@H](O)[C@@H](CO)O[C@@H](O[C@H]4[C@H](O)[C@@H](O)C(O)O[C@@H]4CO)[C@@H]3O)[C@@H]2O)[C@H](O)[C@@H](O)[C@H]1O (stereo partly drawn)', 0.3),
  ('OC[C@H]1O[C@@H](O[C@H]2[C@@H](O)[C@@H](CO)O[C@@H](O[C@H]3[C@H](O)[C@@H](CO)OC(O)[C@@H]3O)[C@@H]2O)[C@H](O)[C@@H](O)[C@H]1O (stereo partly drawn)', 0.4);

====

system: microbiota present in the faecal samples; assay: Faecal fermentation, distribution of oligosaccharides (HPAEC-PAD peak areas); settings: Comp. Ex. 1 sample, 48 h, Donor B
// values below are reported Peak areas
endpoint: Peak areas

INSERT INTO results (molecule, value_reported) VALUES
  ('OC[C@H]1O[C@@H](O[C@H]2[C@@H](O)[C@@H](CO)O[C@@H](O[C@H]3[C@@H](O)[C@@H](CO)O[C@@H](O[C@H]4[C@H](O)[C@@H](O)C(O)O[C@@H]4CO)[C@@H]3O)[C@@H]2O)[C@H](O)[C@@H](O)[C@H]1O (stereo partly drawn) [Cpd. ID 31]', 0.4),
  ('OC[C@H]1O[C@@H](O[C@H]2[C@H](O)[C@@H](O)C(O)O[C@@H]2CO)[C@H](O)[C@@H](O)[C@H]1O (stereo partly drawn) [Lactose]', 0.5),
  ('OC[C@H]1O[C@@H](O[C@H]2[C@@H](O)[C@@H](CO)O[C@@H](O[C@H]3[C@H](O)[C@@H](O)C(O)O[C@@H]3CO)[C@@H]2O)[C@H](O)[C@@H](O)[C@H]1O (stereo partly drawn) [Cpd. ID 12, D-Gal-(β1-3)-D-Gal-(β1-4)-D-Glu]', 1.1),
  ('OC[C@H]1O[C@@H](O[C@H]2[C@@H](O)[C@@H](CO)O[C@@H](O[C@H]3[C@H](O)[C@@H](CO)OC(O)[C@@H]3O)[C@@H]2O)[C@H](O)[C@@H](O)[C@H]1O (stereo partly drawn) [Cpd. ID 29, D-Gal-(β1-3)-D-Gal-(β1-3)-D-Glu]', 0.3),
  ('O=C[C@H](O)[C@@H](O)[C@H](O)[C@H](O)CO [Glucose]', 0.0),
  ('O=C[C@H](O)[C@@H](O)[C@@H](O)[C@H](O)CO [Galactose]', 0.0);

====

system: microbiota present in the faecal samples; test: Faecal fermentation, distribution of oligosaccharides (HPAEC-PAD peak areas); details: Example 2 sample, 48 h, Donor C
endpoint: Peak areas

INSERT INTO assay_data (compound, endpoint, value_reported) VALUES
  ('OC[C@H]1O[C@@H](OC[C@H]2OC(O)[C@H](O)[C@@H](O)[C@@H]2O)[C@H](O)[C@@H](O)[C@H]1O (stereo partly shown)', 'Peak areas', 0.0),
  ('OC[C@H]1O[C@@H](O[C@H]2[C@@H](O)[C@@H](CO)O[C@@H](O[C@H]3[C@@H](O)[C@@H](CO)O[C@@H](O[C@H]4[C@H](O)[C@@H](O)C(O)O[C@@H]4CO)[C@@H]3O)[C@@H]2O)[C@H](O)[C@@H](O)[C@H]1O (stereo partly shown)', 'Peak areas', 0.0),
  ('OC[C@H]1O[C@@H](O[C@H]2[C@@H](O)[C@@H](CO)O[C@@H](O[C@H]3[C@H](O)[C@@H](O)C(O)O[C@@H]3CO)[C@@H]2O)[C@H](O)[C@@H](O)[C@H]1O (stereo partly shown)', 'Peak areas', 0.2),
  ('O=C[C@H](O)[C@@H](O)[C@@H](O)[C@H](O)CO', 'Peak areas', 0.0);

====

system: microbiota present in the faecal samples; assay: Faecal fermentation, distribution of oligosaccharides (HPAEC-PAD peak areas); conditions: Example 2 sample, 24 h, Donor A
Peak areas reference
endpoint: Peak areas

INSERT INTO assay_data (compound, test_target, value_reported) VALUES
  ('O=C[C@H](O)[C@@H](O)[C@H](O)[C@H](O)CO', 'microbiota present in the faecal samples', 0.0),
  ('OC[C@H]1O[C@@H](O[C@@H]2[C@H](O)[C@@H](O)[C@H](O[C@H]3[C@H](O)[C@@H](O)C(O)O[C@@H]3CO)O[C@@H]2CO)[C@H](O)[C@@H](O)[C@H]1O (stereo partly drawn)', 'microbiota present in the faecal samples', 1.2),
  ('OC[C@H]1O[C@@H](OC[C@H]2OC(O)[C@H](O)[C@@H](O)[C@@H]2O)[C@H](O)[C@@H](O)[C@H]1O (stereo partly drawn)', 'microbiota present in the faecal samples', 0.0),
  ('OC[C@H]1O[C@@H](O[C@H]2[C@@H](O)[C@@H](CO)O[C@@H](O[C@H]3[C@H](O)[C@@H](O)C(O)O[C@@H]3CO)[C@@H]2O)[C@H](O)[C@@H](O)[C@H]1O (stereo partly drawn)', 'microbiota present in the faecal samples', 0.4),
  ('OC[C@H]1O[C@@H](O[C@H]2[C@@H](O)[C@@H](CO)O[C@@H](O[C@H]3[C@@H](O)[C@@H](CO)O[C@@H](O[C@H]4[C@H](O)[C@@H](O)C(O)O[C@@H]4CO)[C@@H]3O)[C@@H]2O)[C@H](O)[C@@H](O)[C@H]1O (stereo partly drawn)', 'microbiota present in the faecal samples', 0.2),
  ('OC[C@H]1O[C@@H](O[C@H]2[C@H](O)[C@@H](O)C(O)O[C@@H]2CO)[C@H](O)[C@@H](O)[C@H]1O (stereo partly drawn)', 'microbiota present in the faecal samples', 0.3),
  ('O=C[C@H](O)[C@@H](O)[C@@H](O)[C@H](O)CO', 'microbiota present in the faecal samples', 0.0),
  ('OC[C@H]1O[C@@H](O[C@H]2[C@@H](O)[C@@H](CO)O[C@@H](O[C@H]3C(O)O[C@H](CO)[C@@H](O)[C@@H]3O)[C@@H]2O)[C@H](O)[C@@H](O)[C@H]1O (stereo partly drawn)', 'microbiota present in the faecal samples', 0.0),
  ('OC[C@H]1O[C@@H](O[C@H]2[C@@H](O)[C@@H](CO)O[C@@H](O[C@H]3[C@H](O)[C@@H](CO)OC(O)[C@@H]3O)[C@@H]2O)[C@H](O)[C@@H](O)[C@H]1O (stereo partly drawn)', 'microbiota present in the faecal samples', 0.0);
